Test system: U2OS
ASSAY_METHOD_TEXT: Multiplex assay against U2OS
Type: toxicity, cell-based
RUN_PARAMETERS: human, 12 h, 10 µM, compound concentration 10 uM, replicate 2
Population Normal (%) listing for selected compounds.
REPORTED_ENDPOINT: Population Normal (%)

1. CCn1c(=O)c(-c2ccc(-c3cncs3)cc2Cl)cc2cnc(Nc3ccc(N4CCN(C)CC4)cc3)nc21; 96
2. CCOc1cc(C(=O)N2CCC(N3CCN(C)CC3)CC2)ccc1Nc1ncc2c(n1)N(C1CCCC1)c1ccccc1C(=O)N2C; 93
3. CCOC(=O)c1c(C)[nH]c2ccc3c(c12)CN1CCc2cc(OC)ccc2C1O3 (stereo not drawn); 88
4. CNc1cc(Oc2cc(C(=O)Nc3cc(N4CCN(C)CC4)cc(C(F)(F)F)c3)ccc2C)ncn1; 66
5. Cn1nc(C(=O)NCc2ccc(C(=O)O)cc2)cc1-c1ccc2[nH]ccc2c1; 88
6. COc1ccc(-c2ccc3c(N4CCOCC4)nc(N4C[C@@H](C)O[C@@H](C)C4)nc3n2)cc1CO; 62
7. COc1cccc2cc(-c3nc([C@H]4CC[C@H](C(=O)O)CC4)n4ncnc(N)c34)[nH]c12; 82
8. CCc1cccc(CC)c1NC(=O)c1nn(C)c2c1CCc1cnc(Nc3ccc(N4CCN(C)CC4)cc3OC)nc1-2; 81
9. COc1cc2ncnc(Nc3ccc(F)c(Cl)c3)c2cc1NC(=O)/C=C/CN1CCCCC1 [DACOMITINIB ANHYDROUS]; 89
10. O=C1NC(=O)C(c2cnc3ccccn23)=C1c1cn2c3c(cc(F)cc13)CN(C(=O)N1CCCCC1)CC2; 89
11. S=C(NCCCc1c[nH]cn1)NCCCN(Cc1ccc(Cl)c(Cl)c1)c1ccc(Br)cn1; 88
12. CNC(=O)c1ccc(Nc2nc(OC3CCCC3)c3c(-c4ccc5nc(C)oc5c4)c[nH]c3n2)c(OC)c1; 77
13. Cl.O=c1c2cccn2c2ccccc2n1CCCN1CCC(c2ccc(Cl)cc2)CC1; 89
14. COC(=N)c1nc2ccc3ncnc(Nc4ccc(OC)cc4F)c3c2s1; 86
15. CN(C)C(=O)C(CCN1CCC(O)(c2ccc(Cl)cc2)CC1)(c1ccccc1)c1ccccc1.Cl [LOPERAMIDE HYDROCHLORIDE]; 93
16. Cc1cn(-c2cc(NC(=O)c3ccc(C)c(Nc4nccc(-c5cccnc5)n4)c3)cc(C(F)(F)F)c2)cn1; 92
17. CCN1CCN(Cc2ccc(Nc3ncc(F)c(-c4cc(F)c5nc(C)n(C(C)C)c5c4)n3)nc2)CC1.CS(=O)(=O)O; 90
18. CCN1CCN(c2ccc(Nc3cc(N(C)C(=O)Nc4c(Cl)c(OC)cc(OC)c4Cl)ncn3)cc2)CC1; 86
19. Cc1cc(C)c(S(=O)(=O)N(Cc2ccc(-c3cccc(S(C)(=O)=O)c3)cc2)Cc2ccc(C(F)(F)F)o2)c(C)c1; 77
20. CCCn1c(=O)c2[nH]c(-c3cnn(Cc4cccc(C(F)(F)F)c4)c3)nc2n(CC)c1=O; 94
21. CN1CCC(=C2c3ccccc3CC(=O)c3sccc32)CC1.O=C(O)/C=C/C(=O)O [KETOTIFEN FUMARATE]; 98
22. CCCS(=O)(=O)Nc1ccc(F)c(C(=O)c2c[nH]c3ncc(Cl)cc23)c1F; 90
23. Cc1ccc2nc(NCCN)c3ncc(C)n3c2c1.O=C(O)C(F)(F)F.O=C(O)C(F)(F)F; 87
24. Cn1nc(C(F)(F)F)cc1-c1cnc(N2CCc3cc(S(=O)(=O)Nc4c(F)cc(Cl)cc4F)cc(N4CCCC4=O)c32)nc1; 94
25. C=C1/C(=C\C=C2/CCC[C@]3(C)[C@@H]([C@H](C)/C=C/[C@H](C)C(C)C)CC[C@@H]23)C[C@@H](O)C[C@@H]1O; 93
26. COc1ccc(S(=O)(=O)N(CCO)c2ccccc2CN(C)C/C=C/c2ccc(Cl)cc2)cc1.O=P(O)(O)O; 83
27. COCC(=O)NC/C=C/c1ccc2ncnc(Nc3ccc(Oc4ccc(C)nc4)c(C)c3)c2c1; 88
28. COc1cc(N2CCN(C)CC2)ccc1Nc1ncc2c(n1)N(C)c1ccccc1C(=O)N2C; 94
29. CN1C2CCC1CC(OC(c1ccc(F)cc1)c1ccc(F)cc1)C2.Cl (stereo not drawn); 93
30. O=C(Nc1ccc(-c2ccnc(Nc3ccc(N4CCOCC4)cc3)n2)cc1)[C@@H]1CCCN1; 94
31. Cl.Oc1ccc2c3c1O[C@H]1c4[nH]c5c(c4C[C@@]4(O)[C@@H](C2)N(CC2CC2)CC[C@]314)C[C@@]1(O)[C@H]2Cc3ccc(O)c4c3[C@@]1(CCN2CC1CC1)[C@H]5O4; 92
32. O=C1N/C(=N/c2ccccc2F)S/C1=C\c1ccc(C(=O)O)cc1; 91
33. Cc1ccc(C(=O)Nc2cccc(C(F)(F)F)c2)cc1Nc1nc(-c2cccnc2)nc2c1cnn2C; 91

* * *

# maps each entry to its Population Pyknosed Nuclei (%)
Tested on: HEK-293T
ASSAY_METHOD_TEXT: Multiplex assay against HEK293T
Assay type: toxicity, cell-based
RUN_PARAMETERS: human, 12 h, 1 µM, compound concentration 1 uM, replicate 1
REPORTED_ENDPOINT: Population Pyknosed Nuclei (%)

1) Cc1cn(-c2cc(NC(=O)c3ccc(C)c(Nc4nccc(-c5cccnc5)n4)c3)cc(C(F)(F)F)c2)cn1; 51
2) Cl.O=c1c2cccn2c2ccccc2n1CCCN1CCC(c2ccc(Cl)cc2)CC1; 44
3) S=C(NCCCc1c[nH]cn1)NCCCN(Cc1ccc(Cl)c(Cl)c1)c1ccc(Br)cn1; 49
4) COc1ccc(-c2ccc3c(N4CCOCC4)nc(N4C[C@@H](C)O[C@@H](C)C4)nc3n2)cc1CO; 14
5) CCOc1cc2ncc(C#N)c(Nc3ccc(OCc4ccccn4)c(Cl)c3)c2cc1NC(=O)/C=C/CN(C)C; 55
6) CCc1cccc(CC)c1NC(=O)c1nn(C)c2c1CCc1cnc(Nc3ccc(C(=O)NC4CCN(C)CC4)cc3OC(F)(F)F)nc1-2; 45
7) O=C(Nc1ccc(-n2nc(-c3cccnc3)cc2C(F)(F)F)cn1)c1ccc(-c2ccccc2)c(F)c1; 53
8) CCOc1cc(C(=O)N2CCC(N3CCN(C)CC3)CC2)ccc1Nc1ncc2c(n1)N(C1CCCC1)c1ccccc1C(=O)N2C; 57

* * *

Test system: U2OS
ASSAY_METHOD_TEXT: Multiplex assay against U2OS
Format: toxicity, cell-based
RUN_PARAMETERS: human, 12 h, 1 µM, compound concentration 1 uM, replicate 1
REPORTED_ENDPOINT: Population Normal (%)

1. NC(=O)c1cccc(-c2cc(Nc3ccc(OC(F)(F)F)cc3)ncn2)c1; 98
2. CNc1cc(Oc2cc(C(=O)Nc3cc(N4CCN(C)CC4)cc(C(F)(F)F)c3)ccc2C)ncn1; 88
3. COc1ccc(S(=O)(=O)N(CCO)c2ccccc2CN(C)C/C=C/c2ccc(Cl)cc2)cc1.O=P(O)(O)O; 97
4. O=C(Nc1ccc(-n2nc(-c3cccnc3)cc2C(F)(F)F)cn1)c1ccc(-c2ccccc2)c(F)c1; 87
5. CCCS(=O)(=O)Nc1ccc(F)c(C(=O)c2c[nH]c3ncc(Cl)cc23)c1F; 97
6. CCn1c(=O)c(-c2ccc(-c3cncs3)cc2Cl)cc2cnc(Nc3ccc(N4CCN(C)CC4)cc3)nc21; 92
7. CN1CCC(=C2c3ccccc3CC(=O)c3sccc32)CC1.O=C(O)/C=C/C(=O)O [KETOTIFEN FUMARATE]; 94
8. C=C1/C(=C\C=C2/CCC[C@]3(C)[C@@H]([C@H](C)/C=C/[C@H](C)C(C)C)CC[C@@H]23)C[C@@H](O)C[C@@H]1O; 93

* * *

Test system: U2OS
ASSAY_METHOD_TEXT: Multiplex assay against U2OS
Assay type: toxicity, cell-based
RUN_PARAMETERS: human, 12 h, 1 µM, compound concentration 1 uM, replicate 1
REPORTED_ENDPOINT: Population Fragmented Nuclei (%)

1. CCc1cccc(CC)c1NC(=O)c1nn(C)c2c1CCc1cnc(Nc3ccc(N4CCN(C)CC4)cc3OC)nc1-2; 38
2. CCOC(=O)c1c(C)[nH]c2ccc3c(c12)CN1CCc2cc(OC)ccc2C1O3 (stereo not given); 9
3. CN[C@@H]1C[C@H]2O[C@@](C)([C@@H]1OC)n1c3ccccc3c3c4c(c5c6ccccc6n2c5c31)C(=O)NC4 [STAUROSPORINE]; 47
4. O=C1NC(=O)C(c2cnc3ccccn23)=C1c1cn2c3c(cc(F)cc13)CN(C(=O)N1CCCCC1)CC2 [LY-2090314]; 8
5. CCOc1cc(C(=O)N2CCC(N3CCN(C)CC3)CC2)ccc1Nc1ncc2c(n1)N(C1CCCC1)c1ccccc1C(=O)N2C; 14
6. COC(=N)c1nc2ccc3ncnc(Nc4ccc(OC)cc4F)c3c2s1; 9
7. NC(=O)c1cccc(-c2cc(Nc3ccc(OC(F)(F)F)cc3)ncn2)c1; 5
8. Cn1nc(C(F)(F)F)cc1-c1cnc(N2CCc3cc(S(=O)(=O)Nc4c(F)cc(Cl)cc4F)cc(N4CCCC4=O)c32)nc1 [TP-020]; 4
9. COc1ccc(-c2ccc3c(N4CCOCC4)nc(N4C[C@@H](C)O[C@@H](C)C4)nc3n2)cc1CO [Ku-0063794]; 7
10. O=C(Cc1ccc(-c2ccc(OCCN3CCOCC3)cc2)cn1)NCc1ccccc1 [TIRBANIBULIN]; 10
